Study Target: cloned human 5HT1A receptors (Homo sapiens)
Sequence (P08908 whole entry): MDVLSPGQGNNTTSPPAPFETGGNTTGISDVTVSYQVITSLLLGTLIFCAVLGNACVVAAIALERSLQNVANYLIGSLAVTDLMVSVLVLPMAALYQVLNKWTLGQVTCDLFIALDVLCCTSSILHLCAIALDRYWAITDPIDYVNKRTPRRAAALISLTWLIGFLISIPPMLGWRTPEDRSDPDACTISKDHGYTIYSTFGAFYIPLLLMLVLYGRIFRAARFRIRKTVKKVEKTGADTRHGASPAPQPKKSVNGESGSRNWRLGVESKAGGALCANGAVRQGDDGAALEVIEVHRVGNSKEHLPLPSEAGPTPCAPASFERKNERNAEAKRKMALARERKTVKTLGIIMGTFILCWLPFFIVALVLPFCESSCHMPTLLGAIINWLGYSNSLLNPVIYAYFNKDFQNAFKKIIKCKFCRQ
Outcome Measure: pIC50
Scale explanation: pIC50 corresponds to minus log10 of a concentration expressed in moles per litre.

As a guide, the following entries are already answered.
Compound	pIC50
Cc1nc2ccc3c(c2o1)O[C@@H](CNCCCc1c[nH]c2ccc(F)cc12)CO3	7.71
Cc1ccc2c3c(ccc2n1)OCC(CNCCCc1cn(C)c2ccc(F)cc12)O3 (stereo not drawn)	6.86
Cc1ccc2c3c(ccc2n1)OC[C@H](CNCCCCc1csc2ccc(Cl)cc12)O3	7.00

// compound Cc1nc2ccc3c(c2o1)OC(CN(C)CCCc1c[nH]c2ccc(F)cc12)CO3 (stereo not drawn) , assay cloned human 5HT1A receptors (Homo sapiens), pIC50 value: 6.80

The compound Cc1ccc2c3c(ccc2n1)OCC(CN(C)CCCCc1cn(C)c2ccc(F)cc12)O3 (stereo not drawn) on cloned human 5HT1A receptors (Homo sapiens): pIC50 was 6.43

Item Cc1ccc2c3c(ccc2n1)OCC(CNCCCc1c[nH]c2c(F)cccc12)O3 (stereo not drawn) was tested on cloned human 5HT1A receptors (Homo sapiens); the reported pIC50 is 7.59

====

Study Target: UniProtKB P31652
Sequence (P31652 whole entry): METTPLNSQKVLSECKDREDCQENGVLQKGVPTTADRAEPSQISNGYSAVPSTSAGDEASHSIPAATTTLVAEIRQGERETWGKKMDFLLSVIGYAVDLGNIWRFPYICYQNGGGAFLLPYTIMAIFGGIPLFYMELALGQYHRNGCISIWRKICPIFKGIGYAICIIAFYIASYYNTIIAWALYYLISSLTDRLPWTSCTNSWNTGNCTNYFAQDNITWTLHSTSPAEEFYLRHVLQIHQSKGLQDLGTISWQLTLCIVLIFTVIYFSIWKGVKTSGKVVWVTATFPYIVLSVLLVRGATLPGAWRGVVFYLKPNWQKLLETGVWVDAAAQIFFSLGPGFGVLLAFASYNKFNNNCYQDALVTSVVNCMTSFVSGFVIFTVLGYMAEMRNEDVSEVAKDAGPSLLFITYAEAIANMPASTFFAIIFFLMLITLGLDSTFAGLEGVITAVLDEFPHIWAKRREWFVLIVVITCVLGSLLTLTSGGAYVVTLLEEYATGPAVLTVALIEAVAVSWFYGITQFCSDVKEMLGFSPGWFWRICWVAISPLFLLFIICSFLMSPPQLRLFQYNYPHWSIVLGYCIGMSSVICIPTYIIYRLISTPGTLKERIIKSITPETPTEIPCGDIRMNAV
Threshold 4 nM. Ki below it: Y. Ki at it or above: N.

Example cases with answers are listed next.
Compound	Classification
Cc1ccc2c3c(ccc2n1)OCC(CNC(C)CCc1c[nH]c2ccc(F)cc12)O3 (single isomer, unassigned; isomer b) [Example 11 Isomer B]	Y
CCCN(CCCc1c[nH]c2ccc(F)cc12)CC1COc2ccc3nc(C)ccc3c2O1 (stereo not shown) [Example 45]	Y
Cc1ccc2c3c(ccc2n1)OCC(CN(C)CCCCc1cn(C)c2ccc(F)cc12)O3 (stereo not shown) [Example 44]	Y

In: Say whether its Ki is strictly beneath 4 nM. Entry: Cc1ccc2c3c(ccc2n1)OCC(CNCCCCc1c[nH]c2ccccc12)O3 (stereo not shown) [Example 9]
Out: N

In: Does the reported Ki of the following compound sit strictly below 4 nM? Cc1ccc2c3c(ccc2n1)OC[C@H](CNCCCc1c[nH]c2ccc(F)cc12)O3 [Example 3]
Out: Y

In: Please state whether Ki is below 4 nM for Cc1ccc2c3c(ccc2n1)OCC(CN(C)CCCc1cn(C)c2c(F)cc(F)cc12)O3 (stereo not shown) [Example 27]
Out: N

====

// Ki collected for human 5-HT1A receptors (Homo sapiens, UniProt P08908)
Write it as a number; the unit nM goes unstated.

Compound	Reported
Cc1ccc2c3c(ccc2n1)OC[C@H](CNCCc1coc2ccccc12)O3	0.63
CCN(CCCCc1coc2ccccc12)C[C@H]1COc2ccc3nc(C)ccc3c2O1	2.08

So, Cc1ccc2c3c(ccc2n1)OCC(CN(C)CCCCc1c[nH]c2ccc(F)cc12)O3 (centres unmarked) ? Its Ki was 13.1

Reported Ki for Cc1ccc2c3c(ccc2n1)OCC(CNCCCc1c[nH]c2ccc(C#N)cc12)O3 (centres unmarked) was 1.64

Lab note: measured Ki of Cc1ccc2c3c(ccc2n1)OCC(CN(C)CCCc1c[nH]c2ccc(F)cc12)O3 (centres unmarked) was 3.43

Value of measured Ki for the entry Cc1ccc2c3c(ccc2n1)OC[C@H](CNCCCc1csc2ccc(Cl)cc12)O3 : 0.45

====

Where a name gives a salt, the structure may show the parent alone.
Outcome Measure: melting point

Molecule	Reported
Fc1ccc2[nH]cc(CCCNC[C@H]3COc4ccc5ncccc5c4O3)c2c1 (as salt: hydrochloride)	196 to 199 °C

Cc1ccc2c3c(ccc2n1)OCC(CN(C)CCCc1cn(C)c2c(F)cc(F)cc12)O3 (centres unmarked) (as salt: hydrochloride) yielded melting point of 190 to 204 °C

Entry Cc1ccc2c3c(ccc2n1)OCC(CNCCCCc1coc2ccccc12)O3 (centres unmarked) (as salt: fumarate) ; melting point = 127 to 130 °C

Entry Cc1ccc2c3c(ccc2n1)OCC(CN(C)CCCn1ccc2ccc(F)cc21)O3 (centres unmarked) (as salt: hydrochloride) ; melting point = 75.9 to 83.7 °C

melting point measured on Cc1ccc2c3c(ccc2n1)OC[C@H](CNCCCc1csc2ccc(F)cc12)O3 (as salt: fumarate) = 117 to 120 °C

Summary for this molecule, Cc1ccc2c3c(ccc2n1)OC[C@H](CNCCCCc1csc2ccc(Cl)cc12)O3 (as salt: fumarate) : melting point is 140 to 144 °C

Sample Cc1ccc2c3c(ccc2n1)OC[C@H](CNCCCc1csc2ccccc12)O3 (as salt: fumarate) ; melting point observed: 185 to 186 °C

Documented melting point of CCN(CCCc1c[nH]c2ccc(F)cc12)C[C@H]1COc2ccc3nc(C)oc3c2O1 (as salt: hydrochloride) : 115 °C (dec.)

// recorded melting point for Cc1ccc2c3c(ccc2n1)OC[C@H](CNCCc1coc2ccccc12)O3 (as salt: fumarate) : 210 to 214 °C

Record Cc1ccc2c3c(ccc2n1)OCC(CNCCCc1c[nH]c2ccc(C#N)cc12)O3 (centres unmarked) (as salt: hydrochloride) . Reported melting point: 170 to 174 °C

// melting point value for Cc1ccc2c3c(ccc2n1)OC[C@H](CNCCCc1c[nH]c2ccc(F)cc12)O3 (as salt: fumarate) : 207 to 209 °C

melting point in this record for Cc1ccc2c3c(ccc2n1)OCC(CNCCCCn1ccc2ccc(F)cc21)O3 (centres unmarked) (as salt: hydrochloride) : 122 to 127 °C

Form: molecule = COc1cccc2c(CCCNCC3COc4ccc5nc(C)ccc5c4O3)coc12 (centres unmarked) (as salt: fumarate) ; melting point = 155 to 160 °C

Lookup result for Cc1ccc2c3c(ccc2n1)OCC(CNCCCc1c[nH]c2c(F)cc(F)cc12)O3 (centres unmarked) (as salt: fumarate) ; measured melting point: 188 to 195 °C
